- Measured target: avi-tagged SARS-CoV-2 M^pro (Severe acute respiratory syndrome coronavirus 2)
- Assay type: binding
Each item that follows carries a reported Enrichment score M^pro.

Example entries begin here.
{"Molecule": "CCCCC(NC(=O)CC(Cc1c[nH]c2ccccc12)NC(=O)C(Cc1ccccc1)NC(=O)c1ccnc(C#N)c1)C(=O)NC (stereo not shown) [SLL07]", "Enrichment score M^pro": "135,654"}
{"Molecule": "CNC(=O)[C@@H](CSCNC(C)=O)NC(=O)c1ccc2cncc(-c3ccc(Oc4ccccc4)nc3)c2n1 [SLL08]", "Enrichment score M^pro": "11,444"}
{"Molecule": "CCCC[C@@H](NC(=O)c1ccnc(C#N)c1)C(=O)N[C@H](CC(=O)N[C@H](Cc1ccncc1)C(=O)NC)Cc1c[nH]c2ccccc12 [SLL12]", "Enrichment score M^pro": "488,354"}

Next molecule, please.
// CNC(=O)C(Cc1ccncc1)NC(=O)CC(Cc1c[nH]c2ccccc12)NC(=O)C(CC1CCC1)NC(=O)c1ccnc(C#N)c1 (stereo not shown) [SLL11] : Enrichment score M^pro value = 515,485

====

- Protocol details: in vitro
- Protocol conditions: mouse, microsomes
Collected microsomal CLint values appear next to each entry.
Hi! Could you send only the number? It should be in µL/min/mg, unit omitted.

{"Molecule": "CNC(=O)C(Cc1ccncc1)NC(=O)CC(Cc1c[nH]c2ccccc12)NC(=O)C(CC1CCC1)NC(=O)c1ccnc(C#N)c1 (centres unmarked)", "microsomal CLint (µL/min/mg)": 154}

Reported microsomal CLint for CCCC[C@@H](NC(=O)c1ccnc(C#N)c1)C(=O)N[C@H](CC(=O)N[C@H](Cc1ccncc1)C(=O)NC)Cc1c[nH]c2ccccc12 was 170

====

Listing of entries alongside the reported pIC50.
- Measured target: UniProt P0DTD1
- Protocol details: Mpro protease activity assay (FRET, used for Table 1)
- Format: biochemical
- Protocol conditions: 75 nM M^pro, 10 µM substrate, 11-point series from 50 µM
# pIC50 is unitless: minus log10 of the molar concentration; print number only

{"Compound": "CCCC[C@@H](NC(=O)c1ccnc(C#N)c1)C(=O)N[C@H](CC(=O)N[C@H](Cc1ccncc1)C(=O)NC)Cc1c[nH]c2ccccc12", "pIC50": 7.28}

Item: CCCCC(NC(=O)CC(Cc1c[nH]c2ccccc12)NC(=O)C(Cc1ccccc1)NC(=O)c1ccnc(C#N)c1)C(=O)NC (stereo not shown) | pIC50: 6.85

GET /value?item= CNC(=O)C(Cc1ccncc1)NC(=O)CC(Cc1c[nH]c2ccccc12)NC(=O)C(CC1CCC1)NC(=O)c1ccnc(C#N)c1 (stereo not shown) &field=pIC50 returns 7.52

====

- Measured target: avi-tagged SARS-CoV-2 M^pro (Severe acute respiratory syndrome coronavirus 2, UniProt P0DTD1)
- Type: binding
Endpoint label: Enrichment score M^pro +GC376

Worked cases, answers included:
{"Molecule": "CCCCC(NC(=O)CC(Cc1c[nH]c2ccccc12)NC(=O)C(Cc1ccccc1)NC(=O)c1ccnc(C#N)c1)C(=O)NC (stereo not shown) [SLL07]", "Enrichment score M^pro +GC376": 0}
{"Molecule": "CNC(=O)C(Cc1ccncc1)NC(=O)CC(Cc1c[nH]c2ccccc12)NC(=O)C(CC1CCC1)NC(=O)c1ccnc(C#N)c1 (stereo not shown) [SLL11]", "Enrichment score M^pro +GC376": "206,982"}
{"Molecule": "CNC(=O)[C@@H](CSCNC(C)=O)NC(=O)c1ccc2cncc(-c3ccc(Oc4ccccc4)nc3)c2n1 [SLL08]", "Enrichment score M^pro +GC376": 676}

Reported Enrichment score M^pro +GC376 for CCCC[C@@H](NC(=O)c1ccnc(C#N)c1)C(=O)N[C@H](CC(=O)N[C@H](Cc1ccncc1)C(=O)NC)Cc1c[nH]c2ccccc12 [SLL12] was 0

====

- Protocol details: in vitro
- Protocol conditions: human, microsomes
Endpoint label: microsomal CLint (µL/min/mg)
Supply the numeric figure in µL/min/mg, leaving out any unit text.

The compound identified as CNC(=O)C(Cc1ccncc1)NC(=O)CC(Cc1c[nH]c2ccccc12)NC(=O)C(CC1CCC1)NC(=O)c1ccnc(C#N)c1 (centres unmarked) registered its microsomal CLint at 139

According to the records, this compound CCCC[C@@H](NC(=O)c1ccnc(C#N)c1)C(=O)N[C@H](CC(=O)N[C@H](Cc1ccncc1)C(=O)NC)Cc1c[nH]c2ccccc12 displays microsomal CLint of 131

Values compiled from paper PMC11459923.
